Consider the following compounds; for each one, report its growth.
# Test system: HT29 colon
# Experimental protocol: NCI-60 one-dose screen, 48 h (100 = growth as untreated, 0 = no growth, -100 = all killed)
# Experimental context: 10 µM unless noted
About 83,000 compounds went through this panel and 20% of them were active in at least one assay; those are over-represented in the sample as a whole.
Give bare numbers, in %.

Answered examples (2):
{"Compound": "CC(C)(C)n1nnnc1C(Nc1nccs1)c1cc2cccc3ccc4cccc1c4c32 (stereo not drawn)", "Measurement": 104}
{"Compound": "CN1C(=O)N(C)C2Nn3c(s/c(=C\\c4ccccn4)c3=O)=NC21 (stereo not drawn)", "Measurement": 110}

Consider the additional compound presented here.
INPUT: So what does the record say about growth for COc1cc(C(=O)c2cc(C(C)=O)c3c4ccccc4ccn23)cc(OC)c1OC ?
OUTPUT: 39.6

----------
# System: HCT-116 colon
# Experimental protocol: NCI-60 one-dose screen, 48 h (100 = growth as untreated, 0 = no growth, -100 = all killed)
# Experimental context: 10 µM unless noted
Compounds without any hit were thinned out: in the full panel of roughly 83,000, 20% have a hit.
Property label: growth (%)
One number for each entry, in %.

Answered examples (5):
{"Compound": "N#C/C(=C\\c1ccc(N2CCCCC2)cc1)C(=O)Nc1sc2c(c1C#N)CCC2", "Output unit": "%", "growth": 89.8}
{"Compound": "CS(=O)(=O)c1ccc2c(c1)c1c(n2S(=O)(=O)c2ccc(Cl)cc2)CCCC1", "Output unit": "%", "growth": 19.2}
{"Compound": "CCN1C(=O)N(CC)C2SC(N/N=C/C=C/c3ccccc3OC)=NC21 (stereo not drawn)", "Output unit": "%", "growth": 6.23}
{"Compound": "CN1CCN(Cc2ccc(NC(=O)c3cncc(C#Cc4[nH]nc5ncncc45)c3)cc2C(F)(F)F)CC1", "Output unit": "%", "growth": 17.7}
{"Compound": "CC(=O)c1sc(Nc2cccc(Nc3nc(C)c(C)s3)c2)nc1C", "Output unit": "%", "growth": 44.2}

State the recorded growth for every item in the following list.
1. COc1cc(/C=C2\SC(=O)NC2=O)ccc1OCC(=O)Nc1ccc(C(=O)/C=C/c2cc3ccccc3nc2Cl)cc1
2. COc1ccc(/C=N/Nc2nc(N/N=C/c3ccc(OC)cc3O)nc(N3CCOCC3)n2)c(O)c1
3. Cc1ccc(Nc2ncnc3c2c(C)nn3-c2ccc([N+](=O)[O-])cc2)cc1
4. IP(CCCSc1n(Cc2ccc3ccccc3c2)c(-c2ccccc2)c(-c2ccccc2)[n+]1Cc1ccc2ccccc2c1)(c1ccccc1)(c1ccccc1)c1ccccc1
5. CCN1C(=O)N(CC)C2SC(N/N=C/c3cccs3)=NC21 (stereo not drawn)
6. Cc1[nH]nc2ccc(-c3nc4cnc(N5CCN(C)CC5)cn4c3Nc3ccc(F)cc3Br)cc12

OUTPUT:
1. -62
2. 34.4
3. 58.9
4. 14.1
5. 3.01
6. 11

State the recorded growth for every item in the following list.
1. CCC(=O)Nc1cc(Nc2cc(NC3CC3)n3ncc(C#N)c3n2)ccc1C
2. NNC(=O)c1sc2nc(-c3cnccn3)cc(-c3cccs3)c2c1N

OUTPUT:
1: 19.2; 2: 99.3

----------
# Tested on: NCI-H226 lung
# Experimental protocol: NCI-60 one-dose screen, 48 h (100 = growth as untreated, 0 = no growth, -100 = all killed)
# Experimental context: 10 µM unless noted
This is part of a sample that, as a whole, favours compounds with a hit. Of some 83,000 tested, about 20% had one in any assay.
Property label: growth (%)
Give bare numbers, in %.

Answered examples (8):
{"Test smiles": "C/C(=N\\NC(=S)Nc1ccc(Br)cc1)c1cc2ccccc2oc1=O", "Measurement": -17.8}
{"Test smiles": "IP(CCCCCCCCCCSc1n(Cc2ccc3ccccc3c2)c(-c2ccccc2)c(-c2ccccc2)[n+]1Cc1ccc2ccccc2c1)(c1ccccc1)(c1ccccc1)c1ccccc1", "Measurement": -55.2}
{"Test smiles": "CS(=O)(=O)c1ccc2c(c1)c1c(n2S(=O)(=O)c2ccc(Cl)cc2)CCCC1", "Measurement": 53.6}
{"Test smiles": "Cc1ccc(/C=C/c2nn3c(-c4ccco4)nnc3s2)cc1", "Measurement": 100}
{"Test smiles": "O=S(=O)(Nc1ccc2c(c1)OC(F)(F)O2)c1ccc(-c2cnc(C3CC3)o2)cc1", "Measurement": 60.8}
{"Test smiles": "O=C(CSc1ccc(-c2nc3ccccc3[nH]2)cn1)N1CCN(c2ccccc2F)CC1", "Measurement": 59.6}
{"Test smiles": "CS(=O)(=O)c1nccc(-c2c(-c3ccc(F)c(OCCc4ccccc4)c3)nc3sccn23)n1", "Measurement": 89.2}
{"Test smiles": "CNC(=O)c1cc(Oc2ccc3nc(NC(=O)c4ccc(CN5CCCN(C)CC5)c(C(F)(F)F)c4)sc3c2)ccn1", "Measurement": 82.9}

Consider the additional molecule presented here.
INPUT: So what does the record say about growth for Cn1c2ccc(Br)cc2c2c3c(c4c5cc(F)ccc5oc4c21)C(=O)N(O)C3=O ?
OUTPUT: 90.8
